Tested on: Escherichia coli TOP10
protocolText: shrunken log2 fold change of peptide-encoding DNA abundance (4.5 h post-induction vs induction); higher = less antimicrobial activity (less host growth inhibition)
studyConditions: time post-induction: 4.5 h; library: site-saturation at positions 5, 18, 19, 20
Rule: shrunken log2 fold change under -0.1 gives Not satisfied, otherwise Satisfied.

{"sequenceRecord": "RRIRQRPPRLPRPRPRPELVPRP", "category": "Not satisfied"}
{"sequenceRecord": "RRIRERPPRLPRPRPRPSSAPRP", "category": "Satisfied"}
{"sequenceRecord": "RRIRFRPPRLPRPRPRPRQGPRP", "category": "Satisfied"}
{"sequenceRecord": "RRIRMRPPRLPRPRPRPVEQPRP", "category": "Satisfied"}
{"sequenceRecord": "RRIRCRPPRLPRPRPRPMKGPRP", "category": "Satisfied"}

Q: Please indicate if the recorded shrunken log2 fold change for `RRIRQRPPRLPRPRPRPDFKPRP` meets or exceeds -0.1.
Ans: Not satisfied

Q: Does the reported shrunken log2 fold change for `RRIRQRPPRLPRPRPRPIPNPRP` fall at or above the -0.1 mark?
Ans: Satisfied

Q: Does the reported shrunken log2 fold change for `RRIRARPPRLPRPRPRPRYSPRP` fall at or above the -0.1 mark?
Ans: Not satisfied

Q: Exam item: decide whether the reported shrunken log2 fold change for `RRIRRRPPRLPRPRPRPSNHPRP` is at least -0.1.
Ans: Not satisfied

Q: Answer whether shrunken log2 fold change of `RRIRWRPPRLPRPRPRPDWIPRP` is greater than or equal to -0.1.
Ans: Satisfied

Q: Check if shrunken log2 fold change >= -0.1 (inclusive). Item: `RRIRTRPPRLPRPRPRPYSQPRP`
Ans: Satisfied

---

System: Escherichia coli TOP10
protocolText: shrunken log2 fold change of peptide-encoding DNA abundance (4.5 h post-induction vs induction); higher = less antimicrobial activity (less host growth inhibition)
studyConditions: time post-induction: 4.5 h; library: site-saturation at positions 5, 18, 19, 20
reportedEndpoint: shrunken log2 fold change
Answer using only a numeral; do not append any unit.

Consider the worked cases shown below.
{"sequenceRecord": "RRIRLRPPRLPRPRPRPVRDPRP", "shrunken log2 fold change": -0.105}
{"sequenceRecord": "RRIRTRPPRLPRPRPRPRKKPRP", "shrunken log2 fold change": 0.173}
{"sequenceRecord": "RRIRLRPPRLPRPRPRPEKDPRP", "shrunken log2 fold change": 0.191}

Q: Value wanted: shrunken log2 fold change (Escherichia coli TOP10) of entry `RRIRERPPRLPRPRPRPSELPRP`
Ans: 0.0285

Q: Item `RRIRARPPRLPRPRPRPHMRPRP` with Escherichia coli TOP10 - shrunken log2 fold change?
Ans: 0.669

Q: Checklist item: shrunken log2 fold change tested on Escherichia coli TOP10, entry `RRIRSRPPRLPRPRPRPLSSPRP` , value?
Ans: -0.329

Q: Checklist item: shrunken log2 fold change tested on Escherichia coli TOP10, entry `RRIRERPPRLPRPRPRPATTPRP` , value?
Ans: -0.0752

Q: Provide value of shrunken log2 fold change for this record tested with Escherichia coli TOP10: `RRIRFRPPRLPRPRPRPPNTPRP`
Ans: -0.0857

---

Test system: Escherichia coli TOP10
protocolText: shrunken log2 fold change of peptide-encoding DNA abundance (4.5 h post-induction vs induction); higher = less antimicrobial activity (less host growth inhibition)
studyConditions: time post-induction: 4.5 h; library: site-saturation at positions 5, 18, 19, 20
shrunken log2 fold change overview
Could you respond with only the numeric value?

Q: Look up shrunken log2 fold change for this sequence: `RRIRRRPPRLPRPRPRPACTPRP`
Ans: 0.181

Q: What value of shrunken log2 fold change has been recorded for this entry: `RRIRDRPPRLPRPRPRPFCIPRP`
Ans: -0.0778

Q: Consider the sequence `RRIRGRPPRLPRPRPRPSVKPRP` and give its measured shrunken log2 fold change.
Ans: 0.293

Q: Name the recorded shrunken log2 fold change for `RRIRLRPPRLPRPRPRPSQYPRP` .
Ans: -0.504

Q: Suppose we examine the sequence `RRIRSRPPRLPRPRPRPMNEPRP` ; what shrunken log2 fold change value has been reported?
Ans: -0.457

Q: Look at this sequence and give its reported shrunken log2 fold change. `RRIRTRPPRLPRPRPRPFWVPRP`
Ans: -0.0427

Q: For the sequence shown here, `RRIRWRPPRLPRPRPRPVHSPRP` , give the reported shrunken log2 fold change.
Ans: -0.37

Q: Which shrunken log2 fold change is reported for this sequence? `RRIRWRPPRLPRPRPRPARDPRP`
Ans: 0.377

---

Tested on: Escherichia coli TOP10
protocolText: shrunken log2 fold change of peptide-encoding DNA abundance (4.5 h post-induction vs induction); higher = less antimicrobial activity (less host growth inhibition)
studyConditions: time post-induction: 4.5 h; library: site-saturation at positions 5, 18, 19, 20
Short version: shrunken log2 fold change at least -0.07 is met, less is not met.

Q: Is shrunken log2 fold change at least -0.07? Consider `RRIRFRPPRLPRPRPRPIQHPRP`
Ans: not met

Q: Form field: shrunken log2 fold change at least -0.07? Entry: `RRIRYRPPRLPRPRPRPWFHPRP`
Ans: not met

Q: Does `RRIRQRPPRLPRPRPRPLPRPRP` have a reported shrunken log2 fold change of at least -0.07?
Ans: met

Q: Evaluate `RRIRWRPPRLPRPRPRPMPLPRP` : shrunken log2 fold change at minimum -0.07?
Ans: met

Q: Can `RRIRVRPPRLPRPRPRPVYKPRP` be said to have shrunken log2 fold change at or above -0.07?
Ans: not met

Q: For this sequence, is measured shrunken log2 fold change -0.07 or higher? `RRIRSRPPRLPRPRPRPRPWPRP`
Ans: met

Q: I'd appreciate it if you could say whether `RRIRIRPPRLPRPRPRPVSWPRP` has shrunken log2 fold change at least equal to -0.07.
Ans: not met

---

Test system: Escherichia coli TOP10
protocolText: shrunken log2 fold change of peptide-encoding DNA abundance (4.5 h post-induction vs induction); higher = less antimicrobial activity (less host growth inhibition)
studyConditions: time post-induction: 4.5 h; library: site-saturation at positions 5, 18, 19, 20
Binary classification by shrunken log2 fold change, with 0.09 as an inclusive lower bound for TRUE; all other cases are FALSE.

{"sequenceRecord": "RRIRHRPPRLPRPRPRPINSPRP", "category": "FALSE"}
{"sequenceRecord": "RRIRWRPPRLPRPRPRPLVTPRP", "category": "TRUE"}
{"sequenceRecord": "RRIRGRPPRLPRPRPRPQLVPRP", "category": "FALSE"}

Q: Decide: shrunken log2 fold change of `RRIRGRPPRLPRPRPRPSFAPRP` >= 0.09?
Ans: TRUE

Q: State whether the measured shrunken log2 fold change reaches 0.09, counting equality as reaching it, for `RRIRPRPPRLPRPRPRPTTVPRP`
Ans: FALSE

Q: shrunken log2 fold change >= 0.09 for `RRIRDRPPRLPRPRPRPKIAPRP` ?
Ans: FALSE

Q: Confirm if shrunken log2 fold change reported for the sequence `RRIRFRPPRLPRPRPRPIYCPRP` is 0.09 or above.
Ans: FALSE

Q: Does the reported shrunken log2 fold change for `RRIRFRPPRLPRPRPRPQTQPRP` fall at or above the 0.09 mark?
Ans: FALSE

Q: Say whether `RRIRIRPPRLPRPRPRPYGIPRP` shows shrunken log2 fold change of 0.09 or more.
Ans: FALSE

Q: State whether the measured shrunken log2 fold change reaches 0.09, counting equality as reaching it, for `RRIRPRPPRLPRPRPRPCPAPRP`
Ans: FALSE

Q: Evaluate `RRIRDRPPRLPRPRPRPVWGPRP` : shrunken log2 fold change at minimum 0.09?
Ans: TRUE

Q: In plain terms: is recorded shrunken log2 fold change at least 0.09 for `RRIRYRPPRLPRPRPRPYMYPRP` ?
Ans: FALSE

Q: For this sequence, is measured shrunken log2 fold change 0.09 or higher? `RRIRRRPPRLPRPRPRPQKPPRP`
Ans: FALSE

Q: In plain terms: is recorded shrunken log2 fold change at least 0.09 for `RRIRVRPPRLPRPRPRPTCCPRP` ?
Ans: TRUE

Q: // inclusive: shrunken log2 fold change at least 0.09? input: `RRIRRRPPRLPRPRPRPTCAPRP`
Ans: TRUE

---

Tested on: Escherichia coli TOP10;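 further: peptides expressed intracellularly from a pBAD plasmid library in pooled LB shake-flask culture, induced with 0.3% L-arabinose, DNA abundance read by NGS, three biological replicates, DESeq2 with apeglm shrinkage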
protocolText: shrunken log2 fold change of peptide-encoding DNA abundance (4.5 h post-induction vs induction); higher = less antimicrobial activity (less host growth inhibition)
studyConditions: time post-induction: 4.5 h; library: site-saturation at positions 5, 18, 19, 20
I would appreciate it if you labelled entries yes (1) when shrunken log2 fold change is -0.009 or higher, otherwise no (0).

Q: Would you say `RRIRCRPPRLPRPRPRPIFSPRP` shows shrunken log2 fold change at minimum -0.009?
Ans: no (0)

Every entry's value here was drawn from the supplement of paper PMC9112550.
